# key: entry, value: IC50
# TEST SYSTEM: Mcl-1/Bim (Homo sapiens, UniProt Q07820)
# Sequence (Q07820 whole entry): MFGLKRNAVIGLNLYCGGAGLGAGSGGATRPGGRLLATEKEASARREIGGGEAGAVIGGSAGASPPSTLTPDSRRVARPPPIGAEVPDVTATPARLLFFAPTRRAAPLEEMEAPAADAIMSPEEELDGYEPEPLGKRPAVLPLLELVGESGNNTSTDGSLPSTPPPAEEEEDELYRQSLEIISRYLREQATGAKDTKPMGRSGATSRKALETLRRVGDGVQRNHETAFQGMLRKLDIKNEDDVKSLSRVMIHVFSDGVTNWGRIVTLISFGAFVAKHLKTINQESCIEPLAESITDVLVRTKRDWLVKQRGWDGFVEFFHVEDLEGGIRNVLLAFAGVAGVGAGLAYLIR
# PROCEDURE TEXT: Mcl-1/Bim ELISA (GST-Mcl-1 binding to biotinylated Bim BH3 peptide)
# MEASUREMENT CONTEXT: read-out: IC50 to inhibit the binding of Mcl-1 to Bim

MOLECULE	IC50
C#Cc1ccc(C(=O)c2[nH]c(Cl)c(Cl)c2-n2c(C(=O)c3ccc(C#C)cc3O)cc(Cl)c2Cl)c(O)c1 [Compound 1-3]	3.7 µM
CCOC(=O)Cn1cc(-c2ccc(C(=O)c3[nH]c(Cl)c(Cl)c3-n3c(C(=O)c4ccc(-c5cn(CC(=O)OCC)nn5)cc4O)cc(Cl)c3Cl)c(O)c2)nn1 [Compound 1-24]	18.4 µM
Cn1c(Cl)c(Cl)c(-n2c(C(=O)c3ccccc3O)cc(Cl)c2Cl)c1C(=O)c1ccccc1O [VI-12]	> 100 µM

====

# TEST SYSTEM: Mcl-1/Bim (Homo sapiens, UniProt Q07820)
# PROCEDURE TEXT: Mcl-1/Bim ELISA (GST-Mcl-1 binding to biotinylated Bim BH3 peptide)
# MEASUREMENT CONTEXT: Table 2-B; n ≥ 3; read-out: Mcl-1/Bim IC50 (average ± SEM)
pIC50: −log10 of the molar value.
Parameter threshold = 5. Response is 1.0 when pIC50 meets or exceeds it, else 0.0.

MOLECULE	CATEGORY LABEL
Cc1cc(O)c(C(=O)c2[nH]c(Cl)c(Cl)c2-n2c(C(=O)c3cc(Cl)c(C)cc3O)cc(Cl)c2Cl)cc1Cl [Compound 1-2]	1.0
Cn1c(Cl)c(Cl)c(-n2c(C(=O)c3ccccc3O)cc(Cl)c2Cl)c1C(=O)c1ccccc1O [VI-12]	0.0
COc1ccc(CS(=O)(=O)c2ccc(C(=O)c3[nH]c(Cl)c(Cl)c3-n3c(C(=O)c4ccc(S(=O)(=O)Cc5ccc(OC)cc5)cc4O)cc(Cl)c3Cl)c(O)c2)cc1 [Compound 1-14]	0.0
O=C(O)c1ccc(C(=O)c2cc(Cl)c3n2-c2c([nH]c(Cl)c2Cl)C(=O)c2ccc(C(=O)O)cc2O3)c(O)c1 [IV-4]	1.0
O=C(c1ccc(OS(=O)(=O)C(F)(F)F)cc1O)c1[nH]c(Cl)c(Cl)c1-n1c(C(=O)c2ccc(OS(=O)(=O)C(F)(F)F)cc2O)cc(Cl)c1Cl [Compound 1-6]	1.0
COc1ccc(CSc2ccc(C(=O)c3[nH]c(Cl)c(Cl)c3-n3c(C(=O)c4ccc(SCc5ccc(OC)cc5)cc4O)cc(Cl)c3Cl)c(O)c2)cc1 [Compound 1-11]	1.0
C#Cc1ccc(C(=O)c2[nH]c(Cl)c(Cl)c2-n2c(C(=O)c3ccc(C#C)cc3O)cc(Cl)c2Cl)c(O)c1 [Compound 1-3]	1.0
O=C(O)CSc1ccc(C(=O)c2[nH]c(Cl)c(Cl)c2-n2c(C(=O)c3ccc(SCC(=O)O)cc3O)cc(Cl)c2Cl)c(O)c1 [Compound 1-15]	1.0

====

# TEST SYSTEM: Mcl-1/Bim (Homo sapiens)
# PROCEDURE TEXT: Mcl-1/Bim ELISA (GST-Mcl-1 binding to biotinylated Bim BH3 peptide)
# MEASUREMENT CONTEXT: Table 2-B; n ≥ 3; read-out: Mcl-1/Bim IC50 (average ± SEM)
# Experimental: ELISAs were performed using a modified version of a previously described procedure (Doi K et al. J. Biol. Chem. 2012, 287, 10224-10235). Briefly, 40 nM of biotinylated Bim BH3 peptide (Biomatik) in SuperBlock blocking buffer (Pierce) was incubated in high-binding capacity streptavidin-coated plates (Pierce) for 2 h. […] 100 μL of 1 N HCl was added to each well to stop the reaction and absorbance was read at 450 nm using a μQuant plate reader (Bio-Tek). […]
# key: entry, value: IC50
QUANTITY: IC50 (µM)

CCOC(=O)CS(=O)(=O)c1ccc(C(=O)c2[nH]c(Cl)c(Cl)c2-n2c(C(=O)c3ccc(S(=O)(=O)CC(=O)OCC)cc3O)cc(Cl)c2Cl)c(O)c1 37.3
COC(=O)c1ccc(C(=O)c2cc(Cl)c3n2-c2c([nH]c(Cl)c2Cl)C(=O)c2ccc(C(=O)OC)cc2O3)c(O)c1 4.1
CCc1ccc(C(=O)c2[nH]c(Cl)c(Cl)c2-n2c(C(=O)c3ccc(CC)cc3O)cc(Cl)c2Cl)c(O)c1 2.1

====

# TEST SYSTEM: Bcl-xL/Bim (Homo sapiens, UniProt Q07817)
# Sequence (Q07817 whole entry): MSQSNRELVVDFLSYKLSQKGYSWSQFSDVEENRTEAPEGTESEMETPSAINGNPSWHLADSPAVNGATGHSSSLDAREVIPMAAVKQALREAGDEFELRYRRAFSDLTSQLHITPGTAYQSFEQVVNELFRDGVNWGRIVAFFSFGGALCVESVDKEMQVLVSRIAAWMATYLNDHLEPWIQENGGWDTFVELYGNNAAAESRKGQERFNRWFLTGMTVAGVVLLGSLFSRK
# PROCEDURE TEXT: Bcl-xL/Bim ELISA (GST-Bcl-xL binding to biotinylated Bim BH3 peptide)
# MEASUREMENT CONTEXT: Table 3-B structure II; n ≥ 3; read-out: Bcl-xL-Bim IC50 (average ± SEM)
pIC50: −log10 of the molar value.

COMPOUND	TEST SYSTEM	pIC50
O=C(O)Cn1cc(-c2cc(O)c(C(=O)c3[nH]c(Cl)c(Cl)c3-n3c(C(=O)c4cc(Cl)c(-c5cn(CC(=O)O)nn5)cc4O)cc(Cl)c3Cl)cc2Cl)nn1 [Compound 1-19]	Bcl-xL/Bim (Homo sapiens, UniProt Q07817)	< 4.30
O=C(O)Cn1cc(-c2ccc(C(=O)c3[nH]c(Cl)c(Cl)c3-n3c(C(=O)c4ccc(-c5cn(CC(=O)O)nn5)cc4O)cc(Cl)c3Cl)c(O)c2)nn1 [Compound 1-26]	Bcl-xL/Bim (Homo sapiens, UniProt Q07817)	< 4.30
CCOC(=O)Cn1cc(-c2ccc(C(=O)c3[nH]c(Cl)c(Cl)c3-n3c(C(=O)c4ccc(-c5cn(CC(=O)OCC)nn5)cc4O)cc(Cl)c3Cl)c(O)c2)nn1 [Compound 1-24]	Bcl-xL/Bim (Homo sapiens, UniProt Q07817)	< 4.00
CCOC(=O)Cn1cc(-c2cc(O)c(C(=O)c3[nH]c(Cl)c(Cl)c3-n3c(C(=O)c4cc(Cl)c(-c5cn(CC(=O)OCC)nn5)cc4O)cc(Cl)c3Cl)cc2Cl)nn1 [Compound 1-17]	Bcl-xL/Bim (Homo sapiens, UniProt Q07817)	< 4.00

====

# TEST SYSTEM: Bcl-xL/Bim (Homo sapiens, UniProt Q07817)
# PROCEDURE TEXT: Bcl-xL/Bim ELISA (GST-Bcl-xL binding to biotinylated Bim BH3 peptide)
# MEASUREMENT CONTEXT: Table 2-B; n ≥ 3 unless specified; read-out: Bcl-xL/Bim IC50 (average ± SEM)

COMPOUND	IC50 / µM
Cc1cc(O)c(C(=O)c2[nH]c(Cl)c(Cl)c2-n2c(C(=O)c3cc(Cl)c(C)cc3O)cc(Cl)c2Cl)cc1Cl [Compound 1-2]	2.5
CCc1ccc(C(=O)c2[nH]c(Cl)c(Cl)c2-n2c(C(=O)c3ccc(CC)cc3O)cc(Cl)c2Cl)c(O)c1 [Compound 1-5]	3.9
O=C1c2ccc(O)cc2Oc2c(Cl)cc(C(=O)c3ccc(O)cc3O)n2-c2c1[nH]c(Cl)c2Cl [IV-2]	9.5
O=C(c1ccc(OS(=O)(=O)C(F)(F)F)cc1O)c1[nH]c(Cl)c(Cl)c1-n1c(C(=O)c2ccc(OS(=O)(=O)C(F)(F)F)cc2O)cc(Cl)c1Cl [Compound 1-6]	2.5
O=C(O)c1ccc(C(=O)c2cc(Cl)c3n2-c2c([nH]c(Cl)c2Cl)C(=O)c2ccc(C(=O)O)cc2O3)c(O)c1 [IV-4]	18.3
COC(=O)c1ccc(C(=O)c2cc(Cl)c3n2-c2c([nH]c(Cl)c2Cl)C(=O)c2ccc(C(=O)OC)cc2O3)c(O)c1 [IV-3]	10.1
O=C(c1ccccc1O)c1[nH]c(Cl)c(Cl)c1-n1c(C(=O)c2ccccc2O)cc(Cl)c1Cl (racemic) [(±)-1, (±)-marinopyrrole A, reference compound]	16.4
C#Cc1ccc(C(=O)c2[nH]c(Cl)c(Cl)c2-n2c(C(=O)c3ccc(C#C)cc3O)cc(Cl)c2Cl)c(O)c1 [Compound 1-3]	5.6

====

# TEST SYSTEM: Bcl-xL/Bim (Homo sapiens, UniProt Q07817)
# PROCEDURE TEXT: Bcl-xL/Bim ELISA (GST-Bcl-xL binding to biotinylated Bim BH3 peptide)
# MEASUREMENT CONTEXT: Table 2-A; n ≥ 3; read-out: Bcl-xL/Bim IC50 (average ± SEM)
# Description: ELISAs were performed using a modified version of a previously described procedure (Doi K et al. J. Biol. Chem. 2012, 287, 10224-10235). Briefly, 40 nM of biotinylated Bim BH3 peptide (Biomatik) in SuperBlock blocking buffer (Pierce) was incubated in high-binding capacity streptavidin-coated plates (Pierce) for 2 h. […] 100 μL of 1 N HCl was added to each well to stop the reaction and absorbance was read at 450 nm using a μQuant plate reader (Bio-Tek). […]

COMPOUND	IC50
O=C(O)Cn1cc(-c2cc(O)c(C(=O)c3[nH]c(Cl)c(Cl)c3-n3c(C(=O)c4cc(Cl)c(-c5cn(CC(=O)O)nn5)cc4O)cc(Cl)c3Cl)cc2Cl)nn1	> 50 µM
CCOC(=O)Cn1cc(-c2ccc(C(=O)c3[nH]c(Cl)c(Cl)c3-n3c(C(=O)c4ccc(-c5cn(CC(=O)OCC)nn5)cc4O)cc(Cl)c3Cl)c(O)c2)nn1	> 100 µM
O=C(c1ccccc1O)c1[nH]c(Cl)c(Cl)c1-n1c(C(=O)c2ccccc2O)cc(Cl)c1Cl (racemic) [(±)-1, (±)-marinopyrrole A, reference compound]	16.4 µM
O=C(O)Cn1cc(-c2ccc(C(=O)c3[nH]c(Cl)c(Cl)c3-n3c(C(=O)c4ccc(-c5cn(CC(=O)O)nn5)cc4O)cc(Cl)c3Cl)c(O)c2)nn1	> 50 µM
CCOC(=O)Cn1cc(-c2cc(O)c(C(=O)c3[nH]c(Cl)c(Cl)c3-n3c(C(=O)c4cc(Cl)c(-c5cn(CC(=O)OCC)nn5)cc4O)cc(Cl)c3Cl)cc2Cl)nn1	> 100 µM
